The reported numbers originate from ChEMBL document CHEMBL3988442.

# system_name: Ubiquitin-activating enzyme e1, putative (Leishmania donovani (strain BPK282A1)) (UniProt E9BSI1)
# Sequence (E9BSI1 as listed by the source): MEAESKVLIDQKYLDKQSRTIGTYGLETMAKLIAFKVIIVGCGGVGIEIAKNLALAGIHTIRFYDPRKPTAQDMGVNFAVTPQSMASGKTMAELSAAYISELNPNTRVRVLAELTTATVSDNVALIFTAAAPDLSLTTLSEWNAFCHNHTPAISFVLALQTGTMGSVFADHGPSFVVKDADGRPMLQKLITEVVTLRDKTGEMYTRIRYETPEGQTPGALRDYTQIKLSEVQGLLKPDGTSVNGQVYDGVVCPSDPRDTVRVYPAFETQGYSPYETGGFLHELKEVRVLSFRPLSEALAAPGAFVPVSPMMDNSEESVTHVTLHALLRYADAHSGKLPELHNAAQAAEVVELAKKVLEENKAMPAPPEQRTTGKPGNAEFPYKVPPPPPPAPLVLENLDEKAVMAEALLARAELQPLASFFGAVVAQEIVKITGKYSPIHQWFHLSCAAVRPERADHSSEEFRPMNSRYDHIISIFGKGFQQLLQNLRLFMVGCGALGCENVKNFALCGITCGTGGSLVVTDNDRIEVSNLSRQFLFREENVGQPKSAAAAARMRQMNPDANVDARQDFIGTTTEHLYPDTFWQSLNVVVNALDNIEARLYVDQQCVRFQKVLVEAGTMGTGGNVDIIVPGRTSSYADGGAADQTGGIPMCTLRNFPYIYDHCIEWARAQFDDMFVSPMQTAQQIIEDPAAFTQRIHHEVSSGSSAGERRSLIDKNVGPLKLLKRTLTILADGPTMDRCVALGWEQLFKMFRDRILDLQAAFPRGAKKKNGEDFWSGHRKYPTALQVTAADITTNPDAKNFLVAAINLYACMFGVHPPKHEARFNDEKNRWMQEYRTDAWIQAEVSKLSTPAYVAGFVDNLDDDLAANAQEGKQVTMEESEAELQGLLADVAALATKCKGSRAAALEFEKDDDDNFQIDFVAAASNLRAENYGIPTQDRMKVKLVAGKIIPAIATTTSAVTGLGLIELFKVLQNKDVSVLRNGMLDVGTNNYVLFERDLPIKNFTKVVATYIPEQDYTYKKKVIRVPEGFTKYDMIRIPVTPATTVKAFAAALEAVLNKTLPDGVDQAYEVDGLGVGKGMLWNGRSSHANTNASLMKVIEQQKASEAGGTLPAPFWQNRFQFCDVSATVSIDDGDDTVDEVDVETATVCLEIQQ
# experimental_protocol: Leishmania donovani Ubiquitin Activating Enzyme (LdE1)
# Format: functional
# Set-up: scale not given: direction of the effect not stated beside the values
# condition: 30 µM
Entries with a potency or affinity are not part of this list.
We begin with a simple list: items and their reported Percent Effect.

>  <compound>
Cc1ccc2oc(C(=O)N3CCc4nnc(N(C)C)cc4C3)cc2n1

>  <unit_info>
%

>  <Percent Effect>
10.7

$$$$
>  <compound>
O=C(Nc1cccnc1)[C@H]1C[C@@H]2CN(C(=O)NC3CCCC3)C[C@H]1O2

>  <unit_info>
%

>  <Percent Effect>
13.5

$$$$
>  <compound>
CC(=O)N1CCCn2nc(CNS(=O)(=O)N3CCCCCC3)cc2C1

>  <unit_info>
%

>  <Percent Effect>
0

$$$$
>  <compound>
Cn1cc(C2COC3(CCN(C(=O)Cn4cccn4)CC3)C2)cn1 (stereo unspecified)

>  <unit_info>
%

>  <Percent Effect>
13.5

$$$$
>  <compound>
CCC(=O)N(C)CC(=O)Nc1ccc(Br)cn1

>  <unit_info>
%

>  <Percent Effect>
2.67

$$$$
>  <compound>
CC(C)(C)C(=O)N1CCC(c2nc(O)cc(-c3ccccn3)n2)CC1

>  <unit_info>
%

>  <Percent Effect>
12.2

$$$$
>  <compound>
Cc1ccccc1N1CCCN(C(=O)CCCS(N)(=O)=O)CC1

>  <unit_info>
%

>  <Percent Effect>
8.22

$$$$
>  <compound>
CC(C)Cc1noc(CN2CCOCC2)n1

>  <unit_info>
%

>  <Percent Effect>
7.89

$$$$
>  <compound>
COCCO[C@H]1CCN(C(=O)c2cc(C)on2)[C@H]1Cc1ccccc1

>  <unit_info>
%

>  <Percent Effect>
11.7

$$$$
>  <compound>
c1cnnc(NCC2CN(CCN3CCCCC3)CCO2)c1 (stereo unspecified)

>  <unit_info>
%

>  <Percent Effect>
-7.79

$$$$
>  <compound>
CC(=O)NCCNC(=O)c1sc(-c2ccc(C)cc2C)nc1C

>  <unit_info>
%

>  <Percent Effect>
10.8

$$$$

###

We begin with a simple list: items and their reported Percent Effect.
# system_name: Ubiquitin-activating enzyme e1, putative (Leishmania donovani (strain BPK282A1)) (UniProt E9BSI1)
# experimental_protocol: Leishmania donovani Ubiquitin Activating Enzyme (LdE1)
# Type: functional
# Design: scale not given: direction of the effect not stated beside the values
# condition: 30 µM
Entries with a potency or affinity are not part of this list.
assay_metric: Percent Effect (%)

>  <compound>
O=C(C1CCC1)N1CCn2c(COc3ncccn3)nnc2C1

>  <assay_metric>
Percent Effect

>  <number>
3.9

$$$$
>  <compound>
Fc1cnc(N2CCOC3(CCN(Cc4ccsc4)CC3)C2)nc1

>  <assay_metric>
Percent Effect

>  <number>
3.9

$$$$
>  <compound>
COc1cccc(N2CCN(CC(O)c3cc(C)ccc3C)CC2)c1 (stereo unspecified)

>  <assay_metric>
Percent Effect

>  <number>
10.5

$$$$
>  <compound>
CN(Cc1cnn(C)c1)C(=O)Cn1c(CS(C)(=O)=O)nc2ccccc21

>  <assay_metric>
Percent Effect

>  <number>
10.5

$$$$
>  <compound>
Cc1ccccc1S(=O)(=O)N1CCCCC1c1ccn[nH]1 (stereo unspecified)

>  <assay_metric>
Percent Effect

>  <number>
9.33

$$$$
>  <compound>
O=C(Nc1cccc(N2CCCC2)c1)C1CCCN1c1nccs1 (stereo unspecified)

>  <assay_metric>
Percent Effect

>  <number>
-15.4

$$$$
>  <compound>
COc1cc(C)nc(N2CCN(C(=O)CNC(C)(C)C)CC2)n1

>  <assay_metric>
Percent Effect

>  <number>
5.13

$$$$
>  <compound>
O=C(NCCn1ccnc1)N1CCN(c2nccs2)CC1

>  <assay_metric>
Percent Effect

>  <number>
15.6

$$$$
>  <compound>
CC(C)N(C)C(=O)C1=NOC2(CCN(C(=O)c3ccccn3)C2)C1 (stereo unspecified)

>  <assay_metric>
Percent Effect

>  <number>
2.74

$$$$
>  <compound>
Cc1ccc(C(=O)N2CCN(CCC(C)(C)C)CC2)c(=O)[nH]1

>  <assay_metric>
Percent Effect

>  <number>
5.13

$$$$
>  <compound>
CN1CCC/C1=N\S(=O)(=O)c1ccc(NC(=O)c2ccc(F)cc2)cc1

>  <assay_metric>
Percent Effect

>  <number>
26

$$$$

###

# Species: Homo sapiens
# experimental_protocol: To identify inhibition of the IFN signalling (Jak-Stat) pathway via expression of an eGFP reporter gene under the control of an IFN-stimulated response element (ISRE) containing MxA promoter.
# Type: functional
# Design: scale not given: direction of the effect not stated beside the values
# condition: 30 µM

>  <compound>
Cc1cnn(CC2CCCN2CCc2nc3ccccc3c(=O)[nH]2)c1 (configuration not stated)

>  <unit_info>
%

>  <Percent Effect>
15.8

$$$$
>  <compound>
CC(=O)N1CCc2c(nc(-c3ccncc3)nc2N(C)CC(O)CO)C1 (configuration not stated)

>  <unit_info>
%

>  <Percent Effect>
12.2

$$$$
>  <compound>
CCc1nc(C)c(C(=O)N2C[C@H]3CC[C@@H]2CN(S(=O)(=O)N(C)C)C3)s1

>  <unit_info>
%

>  <Percent Effect>
21.2

$$$$
>  <compound>
COc1ccc(C2CCCN2C(=O)c2csc(NC(C)=O)n2)cc1 (configuration not stated)

>  <unit_info>
%

>  <Percent Effect>
17.3

$$$$
>  <compound>
O=C(Nc1cccc(CNCc2cccs2)c1)C1CCCC1

>  <unit_info>
%

>  <Percent Effect>
3.75

$$$$
>  <compound>
Cc1ccc(N(CC(=O)c2ccc(Br)cc2)C2=NCCCCC2)cc1

>  <unit_info>
%

>  <Percent Effect>
17.9

$$$$
>  <compound>
c1cncc(-c2nccc(CN3CCCC3)n2)c1

>  <unit_info>
%

>  <Percent Effect>
-2.71

$$$$
>  <compound>
CN(c1ccncn1)C1CC2(CCN(C(=O)c3ccsc3)C2)C1 (configuration not stated)

>  <unit_info>
%

>  <Percent Effect>
11.8

$$$$
>  <compound>
CCNC(=O)c1ccnc(NCC2COc3cc(OC)ccc3C2)c1 (configuration not stated)

>  <unit_info>
%

>  <Percent Effect>
24.8

$$$$
>  <compound>
COc1cc(CNCc2ccc(C(C)O)cc2)cc2c1OCO2 (configuration not stated)

>  <unit_info>
%

>  <Percent Effect>
15.6

$$$$
>  <compound>
CCCNC(=O)Nc1cc2c(cc1SC)OCCO2

>  <unit_info>
%

>  <Percent Effect>
-1.29

$$$$
>  <compound>
CCOc1ncccc1NC(=O)NCC(O)c1ccccc1OC (configuration not stated)

>  <unit_info>
%

>  <Percent Effect>
23.4

$$$$

###

# system_name: Arginase-2, mitochondrial (Homo sapiens)
# experimental_protocol: in vitro enzyme assay to detect the production of urea directly proportional to the activity of Arginase II; note: in the data most compounds retested in dose-response had high values
# Format: functional
# Set-up: scale not given: direction of the effect not stated beside the values
# condition: 33.3 µM
We begin with a simple list: items and their reported Percent Effect.

>  <compound>
CC1CCN(c2ncc3c(n2)CN(c2ccccc2)C3=O)CC1

>  <Percent Effect [%]>
-30.3

$$$$
>  <compound>
Cc1ccc(F)cc1NC(=O)NCC(C)N1CCOCC1 (centres undefined)

>  <Percent Effect [%]>
1.25

$$$$
>  <compound>
Cn1ncc(NCc2cccc(COC(C)(C)C)c2)c(Cl)c1=O

>  <Percent Effect [%]>
5.32

$$$$
>  <compound>
NC(=O)c1cc(C2CCCN(CCCOc3ccccc3)C2)n[nH]1 (centres undefined)

>  <Percent Effect [%]>
6.15

$$$$
>  <compound>
CCOc1ncccc1NC(=O)NC1CCN(S(C)(=O)=O)CC1

>  <Percent Effect [%]>
-6.76

$$$$
>  <compound>
Cc1nccn1C1CCCN(C(=O)c2ccc3c(c2)NC(=O)CO3)C1 (centres undefined)

>  <Percent Effect [%]>
-1.2

$$$$
>  <compound>
Cn1cnc2c1CCN(CCS(=O)(=O)c1ccccc1)C2

>  <Percent Effect [%]>
-5.32

$$$$
>  <compound>
Cc1n[nH]c(C2CN(CC(=O)NCCc3ccsc3)CCO2)n1 (centres undefined)

>  <Percent Effect [%]>
-0.455

$$$$
>  <compound>
Cc1cc(C)n(C2CCCN(C(=O)Cc3csc(C)n3)C2)n1 (centres undefined)

>  <Percent Effect [%]>
1.9

$$$$
>  <compound>
CN(C)C(=O)c1nc2c(s1)CCN(C(=O)c1ccc(Cl)cc1)CC2

>  <Percent Effect [%]>
-29.6

$$$$
>  <compound>
CCOc1ncccc1NC(=O)c1cc(C)c(C)s1

>  <Percent Effect [%]>
-2.21

$$$$
>  <compound>
O=C(c1ccncc1)N1C[C@@H]2CC[C@H](C1)N(C(=O)N1CCOCC1)C2

>  <Percent Effect [%]>
4.69

$$$$
>  <compound>
COCCN1C(=O)CCC12CCN(C(=O)CC1CC1)CC2

>  <Percent Effect [%]>
2.28

$$$$
>  <compound>
CCNc1cc2c(nn1)CCN(C(=O)c1cccc3c1OCCO3)C2

>  <Percent Effect [%]>
-6.76

$$$$
>  <compound>
COC[C@@H]1CC[C@H]2[C@H](CCN2S(=O)(=O)c2cccc(C)c2)O1

>  <Percent Effect [%]>
2.43

$$$$
>  <compound>
CC(C(=O)Nc1ncccn1)N1CCCN(c2nccs2)CC1 (centres undefined)

>  <Percent Effect [%]>
2.05

$$$$
>  <compound>
CC(=O)NCC(=O)N1CCOC2(CCCN(c3cccnc3)C2)C1 (centres undefined)

>  <Percent Effect [%]>
0.833

$$$$
>  <compound>
Cn1cc(CCC(=O)N2C[C@H]3CC[C@@H]2CN(Cc2ccccc2)C3)cn1

>  <Percent Effect [%]>
-3.53

$$$$
>  <compound>
CCn1ccnc1CN1CCN(CCOc2cccc(C#N)c2)CC1

>  <Percent Effect [%]>
-0.383

$$$$
>  <compound>
Cc1cnc(C(=O)N2CCc3ncnc(C)c3CC2)cn1

>  <Percent Effect [%]>
-2.79

$$$$
>  <compound>
Cc1nc(N)sc1C(=O)N1CCCC(c2nccn2CCCN(C)C)C1 (centres undefined)

>  <Percent Effect [%]>
-3.15

$$$$
>  <compound>
CCc1nc(CN(C(C)=O)C2CCN(Cc3cnc(C)cn3)C2)no1 (centres undefined)

>  <Percent Effect [%]>
4.18

$$$$
>  <compound>
COc1ccc(F)cc1CN1CCCC(c2cc(C(N)=O)[nH]n2)C1 (centres undefined)

>  <Percent Effect [%]>
-2.22

$$$$
>  <compound>
Cc1nc(-c2ccccc2F)sc1C(=O)N1CCN(C)CC1

>  <Percent Effect [%]>
-3.85

$$$$
